meta.source: patent EP1738742A2

Target sequence: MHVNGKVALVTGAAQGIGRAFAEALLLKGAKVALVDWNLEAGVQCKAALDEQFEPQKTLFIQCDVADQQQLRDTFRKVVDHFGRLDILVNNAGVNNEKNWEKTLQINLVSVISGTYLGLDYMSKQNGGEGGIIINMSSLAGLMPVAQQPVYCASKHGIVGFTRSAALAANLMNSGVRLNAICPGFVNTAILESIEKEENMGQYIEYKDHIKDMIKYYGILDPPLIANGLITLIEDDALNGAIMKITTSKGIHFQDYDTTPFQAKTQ
Experimental endpoint: IC50 (nM)

(I) CC(C)(C)c1ccc(Oc2ccccc2CC2SC(=O)NC2=O)cc1 (centres unmarked) [compound 4]
(II) O=C1NC(=O)C(Cc2ccccc2Oc2ccccc2)S1 (centres unmarked) [compound 3]
[ask] Select one: I or II . Criterion: greater recorded IC50. State your choice using its label.
[reply] II
